- assay_protocol: Pharmacokinetics in rats
- Assay type: in vivo
- condition_parameters: male, SD, rat, plasma, ip, i.p. (5 mg/kg), read-out: MRTINF_obs
metric_name: MRT inf

O=C(NCc1ccccc1)C(=O)[C@H](C[C@@H]1CCCNC1=O)NC(=O)[C@H](Cc1ccc(F)cc1)NC(=O)c1cc2ccccc2o1 [14a]
1.9 h

## Input Tell me measured MRT inf for O=C(NCc1ccccc1)C(=O)[C@H](C[C@@H]1CCCNC1=O)NC(=O)[C@H](CC1CCCCC1)NC(=O)c1cc2ccccc2o1 [14b] please.
## Output 10.6 h

* * *

- tested_system: SARS-CoV-2 M^pro (Severe acute respiratory syndrome coronavirus 2, UniProt P0DTD1)
metric_name: pIC50
Just the number, please; pIC50 means minus log10 of the concentration in mol/L.

O=C(NCc1ccccc1)C(=O)[C@H](C[C@@H]1CCCNC1=O)NC(=O)[C@H](Cc1ccc(F)cc1)NC(=O)c1cc2ccccc2o1 [14a]
4.90

Turning now to a further record.
## Input Find the measured pIC50 of O=C(NCc1ccccc1)C(=O)[C@H](C[C@@H]1CCCNC1=O)NC(=O)[C@H](CC1CCCCC1)NC(=O)c1cc2ccccc2o1 [14b] with SARS-CoV-2 M^pro (Severe acute respiratory syndrome coronavirus 2, UniProt P0DTD1) as test system.
## Output 6.00

* * *

- assay_protocol: Pharmacokinetics in mice
- Assay type: in vivo
- condition_parameters: male, CD-1, mouse, plasma, iv, 14b, i.v. (10 mg/kg)
metric_name: clearance (mL/min/kg)
Answer format: numeric, mL/min/kg implied, no suffix.

## Input Give the reported value of clearance for this record: O=C(NCc1ccccc1)C(=O)[C@H](C[C@@H]1CCCNC1=O)NC(=O)[C@H](CC1CCCCC1)NC(=O)c1cc2ccccc2o1 [14b]
## Output 62.5

* * *

- assay_protocol: Pharmacokinetics in dogs
- Format: in vivo
- condition_parameters: male, Beagle, dog, plasma, po, p.o. (5 mg/kg)
metric_name: AUC(0-t)
A complete answer gives the number and then names the unit.

O=C(NCc1ccccc1)C(=O)[C@H](C[C@@H]1CCCNC1=O)NC(=O)[C@H](Cc1ccc(F)cc1)NC(=O)c1cc2ccccc2o1 [14a]
351 ng·h/mL

Shifting focus to the molecule that follows.
## Input Please look at this molecule and report its AUC(0-t): O=C(NCc1ccccc1)C(=O)[C@H](C[C@@H]1CCCNC1=O)NC(=O)[C@H](CC1CCCCC1)NC(=O)c1cc2ccccc2o1 [14b]
## Output 271 ng·h/mL

* * *

- assay_protocol: Pharmacokinetics in rats
- Format: in vivo
- condition_parameters: male, SD, rat, plasma, ip, i.p. (5 mg/kg)
metric_name: Cmax (ng/mL)
// note: answer is a bare numeric in ng/mL

O=C(NCc1ccccc1)C(=O)[C@H](C[C@@H]1CCCNC1=O)NC(=O)[C@H](Cc1ccc(F)cc1)NC(=O)c1cc2ccccc2o1 [14a]
2080

## Input Return reported Cmax. Input compound: O=C(NCc1ccccc1)C(=O)[C@H](C[C@@H]1CCCNC1=O)NC(=O)[C@H](CC1CCCCC1)NC(=O)c1cc2ccccc2o1 [14b]
## Output 1630

* * *

- assay_protocol: Pharmacokinetics in dogs
- Format: in vivo
- condition_parameters: male, Beagle, dog, plasma, po, p.o. (5 mg/kg), read-out: AUCINF_obs
The molecules listed here are annotated with their AUC(0-inf).
Answer with a number only, understood to be in ng·h/mL.

O=C(NCc1ccccc1)C(=O)[C@H](C[C@@H]1CCCNC1=O)NC(=O)[C@H](Cc1ccc(F)cc1)NC(=O)c1cc2ccccc2o1 [14a]
357

Please turn your attention to the following entry.
## Input Kindly indicate its recorded AUC(0-inf). Item: O=C(NCc1ccccc1)C(=O)[C@H](C[C@@H]1CCCNC1=O)NC(=O)[C@H](CC1CCCCC1)NC(=O)c1cc2ccccc2o1 [14b]
## Output 283

Where these numbers come from: paper PMC10914734
